- TARGET_OF_ASSAY: human PD-1 (wild-type), expressed on cells (human, UniProt Q15116 25-288)
- Sequence (Q15116 25-288 limits assumed): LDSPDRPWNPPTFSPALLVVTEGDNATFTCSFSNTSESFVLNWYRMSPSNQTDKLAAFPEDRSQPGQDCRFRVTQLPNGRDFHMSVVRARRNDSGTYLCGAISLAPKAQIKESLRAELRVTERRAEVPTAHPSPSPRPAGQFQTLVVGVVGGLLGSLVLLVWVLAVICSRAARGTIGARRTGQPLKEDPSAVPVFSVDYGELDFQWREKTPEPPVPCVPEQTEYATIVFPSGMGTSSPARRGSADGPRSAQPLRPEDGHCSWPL
- TEST_DESCRIPTION: cell-based or functional assay
RECORDED_ENDPOINT: Cell-cell contact assay (ng/mL)
Number in ng/mL, nothing else.

HM297-F5 (antibody, human IgG1, V domains shown, also called humanized HM297, VH ver.F / VL ver.5) VH: QVQLVQSGPEVKKPGASVKIPCKASGYTFTDYNVDWVRQSHGKSLEWIGDIDPNNGGTIYNQKFKDRVTMTVDKSTRTAYMELRSLRSDDTAVYYCARWRGAMDYWGQGTLVTVSS VL: DIQMTQSPSSLSASVGDRVTITCRASQDIDNYLKWYQQKPDGTVKLLIYDTSRLHSGVPSRFSGSGSGTDYTLTISSLKQEDFATYYCQQGYTLPWTFGQGTKLEIK ... 98.9
HM297-F4 (antibody, human IgG1, V domains shown, also called humanized HM297, VH ver.F / VL ver.4) VH: QVQLVQSGPEVKKPGASVKIPCKASGYTFTDYNVDWVRQSHGKSLEWIGDIDPNNGGTIYNQKFKDRVTMTVDKSTRTAYMELRSLRSDDTAVYYCARWRGAMDYWGQGTLVTVSS VL: DIQMTQTTSSLSASVGDRVTITCRASQDIDNYLKWYQQKPDGTVKLLIYDTSRLHSGVPSRFSGSGSGTDYTLTISSLKQEDFATYYCQQGYTLPWTFGQGTKLEIK ... 92.3
HM297-E5 (antibody, human IgG1, V domains shown, also called humanized HM297, VH ver.E / VL ver.5) VH: QVQLVQSGPELVKPGASVKIPCKASGYTFTDYNVDWVRQSHGKSLEWIGDIDPNNGGTIYNQKFKDKATLTVDKSTRTAYMELRSLRSDDTAVYYCARWRGAMDYWGQGTLVTVSS VL: DIQMTQSPSSLSASVGDRVTITCRASQDIDNYLKWYQQKPDGTVKLLIYDTSRLHSGVPSRFSGSGSGTDYTLTISSLKQEDFATYYCQQGYTLPWTFGQGTKLEIK ... 78.6

Qu. GET /values?readout=Cell-cell contact assay&item= HM297-I5 (antibody, human IgG1, V domains shown, also called humanized HM297, VH ver.I / VL ver.5) VH: QVQLVQSGPEVKKPGASVKVVCKASGYTFTDYNVDWVRQVPGQGLEWMGDIDPNNGGTIYNQKFKDRVTMTVDTSTRTAYMELRSLRSDDTAVYYCARWRGAMDYWGQGTLVTVSS VL: DIQMTQSPSSLSASVGDRVTITCRASQDIDNYLKWYQQKPDGTVKLLIYDTSRLHSGVPSRFSGSGSGTDYTLTISSLKQEDFATYYCQQGYTLPWTFGQGTKLEIK
Ans. 94.9
